- tested_target: HLA-A*11:01
- protocol_notes: IEDB peptide-MHC binding, purified MHC/direct/fluorescence; filed as Kd, often an IC50 or EC50 that approximates it; bounds were set here for any values at or beyond the usual limits of such assays
- condition_summary: source organism: Campylobacter jejuni
pKd: −log10 of the molar value.
assay_endpoint: pKd

What pKd value was documented for this sequence, VFKVKLHEI ? ≤ 4.70

Note, next up: VKKLWGHLP ≤ 4.70

* * *

- tested_target: HLA-A*31:01
- protocol_notes: IEDB peptide-MHC binding, purified MHC/competitive/fluorescence; filed as Kd, often an IC50 or EC50 that approximates it; bounds were set here for any values at or beyond the usual limits of such assays
- condition_summary: source organism: Escherichia coli HS
pKd: −log10 of the molar value.
assay_endpoint: pKd

What pKd value was documented for this sequence, MLRLWWIPY ? ≤ 4.70

* * *

- tested_target: HLA-B*44:02
- protocol_notes: IEDB peptide-MHC binding, purified MHC/competitive/radioactivity; filed as Kd, often an IC50 or EC50 that approximates it; bounds were set here for any values at or beyond the usual limits of such assays
- condition_summary: source organism: Mammarenavirus juninense
assay_endpoint: Kd (µM)
Could you give me the number in µM? Just the number is fine.

Give the reported Kd for AETGSQGVY (system: HLA-B*44:02). 0.271

* * *

- tested_target: HLA-B*27:03
- protocol_notes: IEDB peptide-MHC binding, purified MHC/competitive/fluorescence; filed as Kd, often an IC50 or EC50 that approximates it; bounds were set here for any values at or beyond the usual limits of such assays
- condition_summary: source organism: Shigella boydii CDC 3083-94
assay_endpoint: Kd

What Kd value was documented for this sequence, GMMRWCMPV ? ≥ 20 µM

* * *

- tested_target: HLA-B*46:01
- protocol_notes: IEDB peptide-MHC binding, purified MHC/competitive/fluorescence; filed as Kd, often an IC50 or EC50 that approximates it; bounds were set here for any values at or beyond the usual limits of such assays
- condition_summary: source organism: Plesiomonas shigelloides
assay_endpoint: Kd

Give the reported Kd for LLFRMILNY (system: HLA-B*46:01). ≥ 20 µM

* * *

Consider the following sequences; for each one, report its Kd.
- tested_target: HLA-A*31:01
- protocol_notes: IEDB peptide-MHC binding, purified MHC/competitive/radioactivity; filed as Kd, often an IC50 or EC50 that approximates it; bounds were set here for any values at or beyond the usual limits of such assays
- condition_summary: source organism: Mammarenavirus guanaritoense
Could you give me the number in nM? Just the number is fine.

Give the reported Kd for IFFTTSLFLH (system: HLA-A*31:01). 1360

Note, next up: ACRCGRFQK 1440

* * *

- tested_target: HLA-A*11:01
- protocol_notes: IEDB peptide-MHC binding, purified MHC/competitive/radioactivity; filed as Kd, often an IC50 or EC50 that approximates it; bounds were set here for any values at or beyond the usual limits of such assays
- condition_summary: source organism: Dengue virus 4 Philippines/H241/1956
assay_endpoint: Kd (nM)
Could you give me the number in nM? Just the number is fine.

What Kd value was documented for this sequence, TTSKMLLNR ? 178

* * *

- tested_target: HLA-A*03:01
- protocol_notes: IEDB peptide-MHC binding, purified MHC/direct/fluorescence; filed as Kd, often an IC50 or EC50 that approximates it; bounds were set here for any values at or beyond the usual limits of such assays
- condition_summary: source organism: Orthohantavirus tulaense
pKd: −log10 of the molar value.
assay_endpoint: pKd

What pKd value was documented for this sequence, FGAAVSLLF ? ≤ 4.70

Note, next up: FMFNELLAL ≤ 4.70
